Please provide measured remaining binding for the entries that follow.
- Assay System: Sodium- and chloride-dependent GABA transporter 1 (Mus musculus) (UniProt P31648)
- Protocol Text: Remaining NO711 binding to mouse GAT1 by MS-binding assay
State the answer as a number, implicitly in %.

Record request: remaining binding value, item O=C(NCc1ccc(Cl)cc1)C(CCO)N1CCN(C(c2ccc(F)cc2)c2ccc(F)cc2)CC1 (racemic)
102

Record request: remaining binding value, item O=C(NCc1ccccc1)C(CCO)N1CCN(C(c2ccc(F)cc2)c2ccc(F)cc2)CC1 (racemic)
63

Record request: remaining binding value, item O=C(NCc1ccccc1Cl)C(CCO)N1CCN(C(c2ccc(F)cc2)c2ccc(F)cc2)CC1 (racemic)
93

Record request: remaining binding value, item Cc1ccc(CNC(=O)C(CCO)N2CCN(C(c3ccc(F)cc3)c3ccc(F)cc3)CC2)cc1 (racemic)
92
